Entries below carry reported IC50 on Potassium channel subfamily K member 9 (Homo sapiens).

Provide IC50, tested on Potassium channel subfamily K member 9 (Homo sapiens), for CC([C@@H]1CC2CC[C@H]1C2)n1c(-c2ccsc2)n[nH]c1=S (stereo not given in full) .
180 nM

Provide IC50, tested on Potassium channel subfamily K member 9 (Homo sapiens), for `C[C@H](C1CCCCC1)n1c(-c2ccsc2)n[nH]c1=S` .
428 nM

Provide IC50, tested on Potassium channel subfamily K member 9 (Homo sapiens), for `C[C@H]([C@@H]1CC2CC[C@H]1C2)n1c(-c2ccccc2F)n[nH]c1=S` .
169 nM

Provide IC50, tested on Potassium channel subfamily K member 9 (Homo sapiens), for CC(C1CC2CCC1C2)n1c(SCC(=O)N2CCN(C)CC2)nnc1-c1ccco1 (stereo not given) .
28000 nM

Provide IC50, tested on Potassium channel subfamily K member 9 (Homo sapiens), for `CCCC(=O)C1CCN(c2ncnc3c2CN(C(=O)c2ccc(-c4ccccc4)cc2)CC3)CC1` .
141 nM

Provide IC50, tested on Potassium channel subfamily K member 9 (Homo sapiens), for CC(C1CC2CCC1C2)n1c(SCCc2cccc(O)c2)nnc1-c1ccco1 (stereo not given) .
1830 nM

Provide IC50, tested on Potassium channel subfamily K member 9 (Homo sapiens), for COc1cccc(CCSc2nnc(-c3ccco3)n2C(C)C2CC3CCC2C3)c1 (stereo not given) .
1190 nM

Provide IC50, tested on Potassium channel subfamily K member 9 (Homo sapiens), for COc1ccc(NC(=O)CSc2nnc(-c3ccco3)n2C(C)C2CC3CCC2C3)cc1OC (stereo not given) .
18300 nM

More entries:
Provide IC50, tested on Potassium channel subfamily K member 9 (Homo sapiens), for CC(C1C[C@H]2CCC1C2)n1c(-c2ccsc2)n[nH]c1=S (stereo not given in full) .
582 nM

Provide IC50, tested on Potassium channel subfamily K member 9 (Homo sapiens), for `COc1ccc(CC(=O)NCc2ccccc2-c2ccccc2C(=O)NCc2ccc(F)cc2F)cc1` .
3200 nM
